Ref: the array DNA melting data of Ke et al. (doi:10.1101/2024.01.08.574731)

experiment: melting temperature; fluorescence melt of hairpins on a sequencing array, two-state fit, raised by 9.35 °C to match UV melts
protocol.conditions: sodium 0.088 M
Tm reference
The response must be a number in °C with no trailing unit.

Answered examples (2):
>>> val("GCAACCCGAAAGGGCTGC (((.(((....))).)))")
60.6
>>> val("GAGTCCGGAAACGGGTTC ((..(((....)))..))")
33.6

Proceed to the following item.
Item GATTGGGGAAACCTGATC (((..((....))..))) has what recorded Tm?
30.6

====

folding enthalpy reference
experiment: folding enthalpy; higher = less favourable; fluorescence melt of hairpins on a sequencing array, two-state fit
protocol.conditions: sodium 0.088 M
The response must be a number in kcal/mol with no trailing unit.

Answered examples (5):
>>> val("GTGCAAGGAAACTCGCAC ((((.((....)).))))")
-31.7
>>> val("GAGCACGAAAGTGACTC ((((((....))).)))")
-19.5
>>> val("GGTTGCGGAAACGCGACC (((.(((....))).)))")
-37.7
>>> val("GGATGCCCGAAAGGGTCC (((..(((....))))))")
-11
>>> val("GATCCGGGCACGGATC ((((((....))))))")
-31.1

Item GCGGCGACGAAAGTCCGC (((..(((....)))))) has what recorded folding enthalpy?
-17.8

Also GTTCGACGAAAGTCAAC (((.(((....)))))) , if possible.
-15.8

Also GCAGTGCGAAAGCGTTGC (((..((....))..))) , if possible.
-17.7

Also CGCACGGAAACGTTTGCG ((((((....)))..))) , if possible.
-29.5
